These entries and their values trace back to ChEMBL document CHEMBL3091324.

- SUBJECT OF TEST: Cyclin-dependent kinase 1/cyclin B1 (Homo sapiens, UniProt P06493)
- Sequence (P06493 whole entry): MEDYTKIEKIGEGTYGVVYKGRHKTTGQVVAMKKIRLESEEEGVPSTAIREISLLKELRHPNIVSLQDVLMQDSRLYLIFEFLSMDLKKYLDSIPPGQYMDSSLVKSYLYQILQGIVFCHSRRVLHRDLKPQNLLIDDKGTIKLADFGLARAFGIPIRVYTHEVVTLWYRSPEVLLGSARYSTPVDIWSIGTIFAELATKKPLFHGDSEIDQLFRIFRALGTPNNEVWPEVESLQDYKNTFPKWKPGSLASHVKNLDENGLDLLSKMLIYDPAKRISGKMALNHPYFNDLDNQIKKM
- Sequence (P14635 whole entry, further chain): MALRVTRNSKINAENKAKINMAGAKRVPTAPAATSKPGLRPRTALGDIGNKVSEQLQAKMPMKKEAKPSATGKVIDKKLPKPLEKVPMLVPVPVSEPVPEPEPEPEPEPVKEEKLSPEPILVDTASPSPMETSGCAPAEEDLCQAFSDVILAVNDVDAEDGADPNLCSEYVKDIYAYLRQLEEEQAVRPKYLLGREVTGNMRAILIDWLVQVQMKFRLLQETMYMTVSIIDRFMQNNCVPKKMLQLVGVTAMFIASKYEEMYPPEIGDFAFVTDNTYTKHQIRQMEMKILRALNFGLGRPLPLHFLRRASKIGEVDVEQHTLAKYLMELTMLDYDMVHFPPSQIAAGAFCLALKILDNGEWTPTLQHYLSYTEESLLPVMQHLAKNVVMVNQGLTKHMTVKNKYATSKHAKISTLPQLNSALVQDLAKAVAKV
- METHOD DESCRIPTION: Inhibition of CDK1/cyclin B (unknown origin) by HTRF assay
- Type: protein-complex assay
VALUE KIND: pIC50
Entry type: numeric. Quantity: pIC50, the -log10 of concentration in molar units.

Reference set, count: 2
[[record]]
sample_smiles = "Fc1ncccc1[C@H](Nc1nnc(-c2c[nH]c3ncccc23)o1)C1CC1"
subject_of_test = "Cyclin-dependent kinase 1/cyclin B1 (Homo sapiens, UniProt P06493)"
quantitative_result = 5.14

[[record]]
sample_smiles = "Fc1cnc2[nH]cc(-c3nnc(N[C@@H](c4cccnc4F)C4CC4)o3)c2c1"
subject_of_test = "Cyclin-dependent kinase 1/cyclin B1 (Homo sapiens, UniProt P06493)"
quantitative_result = 5.18


Please find the next compound below.
Param readout= pIC50; system= Cyclin-dependent kinase 1/cyclin B1 (Homo sapiens, UniProt P06493); entry= `Fc1ccccc1[C@H](Nc1nnc(-c2c[nH]c3ncccc23)o1)C1CC1` ; returns value.
5.80

----------
- METHOD DESCRIPTION: Clearance in rat at 2 mg/kg, iv
- Format: ADME, organism-based
- Design: dose 2 mg/kg, route intravenous
- MEASUREMENT CONDITIONS: in vivo
VALUE KIND: clearance (mL/min/kg)
Respond with the bare value in mL/min/kg.

I'd like to know its clearance. The compound in question is `c1ccc(CNc2nnc(-c3ccc4cnccc4c3)o2)cc1`
300

----------
- METHOD DESCRIPTION: Clearance in rat at 2 mg/kg, iv and 2 mg/kg, po
- Assay type: ADME, organism-based
- MEASUREMENT CONDITIONS: in vivo
VALUE KIND: clearance

I'd like to know its clearance. The molecule in question is `Fc1cnccc1[C@H](Nc1nnc(-c2c[nH]c3ncccc23)o1)C1CC1`
75 mL/min/kg

----------
- SUBJECT OF TEST: CDC7/DBF4 (Cell division cycle 7-related protein kinase/Activator of S phase kinase) (Homo sapiens, UniProt O00311)
- Sequence (Q9UBU7 whole entry): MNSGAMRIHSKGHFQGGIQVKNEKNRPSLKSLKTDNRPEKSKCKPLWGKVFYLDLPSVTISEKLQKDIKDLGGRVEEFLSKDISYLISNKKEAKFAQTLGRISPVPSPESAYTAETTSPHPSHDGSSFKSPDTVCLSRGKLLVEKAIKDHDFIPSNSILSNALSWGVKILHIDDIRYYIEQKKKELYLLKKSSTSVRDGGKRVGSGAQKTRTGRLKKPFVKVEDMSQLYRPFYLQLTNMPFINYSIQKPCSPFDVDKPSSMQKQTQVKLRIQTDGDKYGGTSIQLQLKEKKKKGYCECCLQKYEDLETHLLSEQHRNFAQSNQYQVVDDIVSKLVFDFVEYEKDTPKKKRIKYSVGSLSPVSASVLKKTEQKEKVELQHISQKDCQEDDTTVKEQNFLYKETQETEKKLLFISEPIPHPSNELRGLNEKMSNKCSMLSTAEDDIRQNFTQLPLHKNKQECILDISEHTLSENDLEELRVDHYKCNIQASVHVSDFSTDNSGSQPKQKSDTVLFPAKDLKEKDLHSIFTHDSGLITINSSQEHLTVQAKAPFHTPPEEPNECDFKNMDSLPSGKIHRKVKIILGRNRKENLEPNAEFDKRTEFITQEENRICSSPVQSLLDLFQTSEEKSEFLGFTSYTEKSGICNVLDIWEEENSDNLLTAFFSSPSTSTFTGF
- Sequence (O00311 whole entry): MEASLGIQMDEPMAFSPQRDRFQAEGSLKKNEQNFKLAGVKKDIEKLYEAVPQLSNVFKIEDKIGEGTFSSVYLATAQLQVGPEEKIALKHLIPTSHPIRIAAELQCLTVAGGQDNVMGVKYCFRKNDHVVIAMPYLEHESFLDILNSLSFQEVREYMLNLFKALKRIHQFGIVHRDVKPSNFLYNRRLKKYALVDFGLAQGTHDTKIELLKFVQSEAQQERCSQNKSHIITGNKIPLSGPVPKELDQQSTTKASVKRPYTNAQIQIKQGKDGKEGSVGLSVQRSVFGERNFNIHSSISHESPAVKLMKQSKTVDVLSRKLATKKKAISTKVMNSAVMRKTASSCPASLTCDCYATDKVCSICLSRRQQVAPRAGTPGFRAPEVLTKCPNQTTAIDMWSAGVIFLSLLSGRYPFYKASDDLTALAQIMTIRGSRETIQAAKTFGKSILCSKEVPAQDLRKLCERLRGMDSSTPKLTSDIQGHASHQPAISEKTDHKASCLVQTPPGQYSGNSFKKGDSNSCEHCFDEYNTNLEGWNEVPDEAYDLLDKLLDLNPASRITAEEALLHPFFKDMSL
- METHOD DESCRIPTION: Inhibition of Cdc7/Dbf4 (unknown origin)-mediated MCM2 phosphorylation at Ser53 by protein A amplified luminescent proximity homogeneous assay
VALUE KIND: IC50 (nM)
Respond with the bare value in nM.

Reference set, count: 3
[[record]]
sample_smiles = "Fc1cnc2[nH]cc(-c3nnc(N[C@@H](c4cccnc4F)C4CC4)o3)c2c1"
units = "nM"
quantitative_result = 1.1

[[record]]
sample_smiles = "Fc1ccccc1CNc1nnc(-c2c[nH]c3ncccc23)o1"
units = "nM"
quantitative_result = 35

[[record]]
sample_smiles = "Fc1ccccc1[C@H](Nc1nnc(-c2c[nH]c3ncncc23)o1)C1CC1"
units = "nM"
quantitative_result = 1.5


I'd like to know its IC50. The molecule in question is `Fc1cnccc1[C@H](Nc1nnc(-c2c[nH]c3ncccc23)o1)C1CC1`
1.8

----------
- METHOD DESCRIPTION: Intrinsic clearance in human liver microsomes
- Format: ADME
- MEASUREMENT CONDITIONS: read-out: CLH
VALUE KIND: microsomal CLint (µL/min/mg)
Respond with the bare value in µL/min/mg.

[[record]]
sample_smiles = "CC(C)[C@@H](Nc1nnc(-c2c[nH]c3ncccc23)o1)c1ccccc1"
value_kind = "microsomal CLint"
units = "µL/min/mg"
quantitative_result = 66


I'd like to know its microsomal CLint. The compound in question is `Fc1ccc(CNc2nnc(-c3c[nH]c4ncccc34)o2)cc1`
47
